procedure-details: Clearance in iv dosed rat
Type: ADME, organism-based
conditions-used: in vivo
Examples of compounds with documented clearance follow.

- query-smiles: "CCC(CC)c1nn(CCO)c2c1N=C(c1ccc(-n3ccnc3C)cc1)CNC2=O"
  clearance / L/h/kg: 4.2
- query-smiles: "COc1ncc(-c2cc(C3=Nc4c(C(C)(C)C)nn(CCO)c4C(=O)NC3)ccc2OC)cn1"
  clearance / L/h/kg: 1.62

###

experimental-target: cAMP and cAMP-inhibited cGMP 3',5'-cyclic phosphodiesterase 10A (Homo sapiens)
Sequence (Q9Y233 whole entry): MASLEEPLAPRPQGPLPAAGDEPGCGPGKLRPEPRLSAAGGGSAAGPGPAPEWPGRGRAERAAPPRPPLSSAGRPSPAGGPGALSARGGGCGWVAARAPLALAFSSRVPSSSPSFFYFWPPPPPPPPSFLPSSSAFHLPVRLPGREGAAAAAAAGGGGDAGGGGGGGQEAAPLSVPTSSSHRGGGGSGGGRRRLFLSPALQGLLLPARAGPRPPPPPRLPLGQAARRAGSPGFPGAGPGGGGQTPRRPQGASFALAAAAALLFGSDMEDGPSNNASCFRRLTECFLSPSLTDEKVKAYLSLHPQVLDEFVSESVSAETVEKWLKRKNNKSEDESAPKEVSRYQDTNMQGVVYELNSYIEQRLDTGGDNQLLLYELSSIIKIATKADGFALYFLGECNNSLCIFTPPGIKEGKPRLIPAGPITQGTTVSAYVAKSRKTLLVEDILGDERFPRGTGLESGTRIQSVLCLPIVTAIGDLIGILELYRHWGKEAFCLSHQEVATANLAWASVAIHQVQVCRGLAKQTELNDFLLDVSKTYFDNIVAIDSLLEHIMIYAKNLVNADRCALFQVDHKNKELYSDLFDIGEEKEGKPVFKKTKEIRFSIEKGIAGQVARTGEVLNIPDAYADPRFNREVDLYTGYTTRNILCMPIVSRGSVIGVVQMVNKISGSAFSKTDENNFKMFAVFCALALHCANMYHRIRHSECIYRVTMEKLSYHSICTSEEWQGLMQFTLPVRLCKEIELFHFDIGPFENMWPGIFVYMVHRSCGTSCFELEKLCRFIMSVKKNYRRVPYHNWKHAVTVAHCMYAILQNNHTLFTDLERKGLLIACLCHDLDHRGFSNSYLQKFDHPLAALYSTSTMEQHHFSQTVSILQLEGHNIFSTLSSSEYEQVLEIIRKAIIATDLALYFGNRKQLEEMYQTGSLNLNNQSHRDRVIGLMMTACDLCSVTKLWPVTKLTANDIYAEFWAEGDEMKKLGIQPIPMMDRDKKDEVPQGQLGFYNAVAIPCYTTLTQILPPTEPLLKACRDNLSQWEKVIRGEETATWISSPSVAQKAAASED
pIC50: −log10 of the molar value.

- query-smiles: "COc1cccc2nc(C)c3nnc(-c4ccccc4Cl)n3c12"
  pIC50: 8.05

###

procedure-details: Half life in iv dosed rat
Type: ADME, organism-based
conditions-used: in vivo

- query-smiles: "COc1ncc(-c2cc(C3=Nc4c(C(C)(C)C)nn(CCO)c4C(=O)NC3)ccc2OC)cn1"
  half-life [h]: 1.5
- query-smiles: "CCC(CC)c1nn(CCO)c2c1N=C(c1ccc(-n3ccnc3C)cc1)CNC2=O"
  half-life [h]: 0.5

###

experimental-target: cAMP and cAMP-inhibited cGMP 3',5'-cyclic phosphodiesterase 10A (Homo sapiens)
procedure-details: Inhibition of recombinant PDE10A (unknown origin) expressed in baculovirus infected insect SF-21 cells using [3H]-cAMP as substrate after 30 mins by liquid scintillation counting analysis
measurement-kind: IC50

- query-smiles: "Cc1ccc2nc(C)c3nnc(-c4cc(OCCCC(F)(F)F)ccc4Cl)n3c2c1"
  experimental-target: "cAMP and cAMP-inhibited cGMP 3',5'-cyclic phosphodiesterase 10A (Homo sapiens)"
  measurement-kind: "IC50"
  reading: "> 1 µM"
